# TARGET: Nociceptin receptor (Homo sapiens)
# Sequence (P41146 whole entry): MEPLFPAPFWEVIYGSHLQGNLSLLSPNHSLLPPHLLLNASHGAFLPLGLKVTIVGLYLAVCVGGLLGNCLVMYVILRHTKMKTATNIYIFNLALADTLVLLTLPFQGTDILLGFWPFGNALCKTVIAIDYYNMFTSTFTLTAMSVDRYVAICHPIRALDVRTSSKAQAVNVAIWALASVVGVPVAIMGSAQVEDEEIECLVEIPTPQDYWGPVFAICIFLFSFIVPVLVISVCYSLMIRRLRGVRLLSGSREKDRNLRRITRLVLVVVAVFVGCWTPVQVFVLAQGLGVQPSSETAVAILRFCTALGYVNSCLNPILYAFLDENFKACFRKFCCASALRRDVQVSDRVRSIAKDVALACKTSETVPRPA
QUANTITY MEASURED: IC50 (nM)
Use nM as the unit, but write only the number.

[
  {
    "CHEMICAL SMILES": "CCN1CCN(c2cc3[nH]c(C(=O)[C@]4(C)CC[C@@H](NC(=O)OC)CC4)nc3cc2C)CC1",
    "QUANTITY MEASURED": "IC50",
    "UNIT ABBREVIATION": "nM",
    "RESULT": 5.3
  }
]

In: Please look up its IC50: CCN1CCN(c2cc3[nH]c(C(=O)C4(C)CCC(=O)CC4)nc3cc2Cl)CC1
Out: 38
